Tested on: up to 32 different microorganisms
assay_protocol: in vitro antibacterial activity (MIC), agar dilution on Brain Heart Infusion (BHI) agar with Steers replicator
Assay type: cell-based
condition_set: Streptococcus Pneumonia 5649 (code ZZA); unit assumed
quantity: MIC (µg/mL)
Numbers only; they are read as µg/mL.

CC[C@H]1OC(=O)[C@H](C)C(=O)[C@H](C)[C@@H](O[C@@H]2O[C@H](C)C[C@H](N(C)C)[C@H]2O)[C@@](C)(OCc2ccc3ccccc3c2)C[C@@H](C)C(=O)[C@H](C)[C@H]2NC(=O)O[C@@]21C 0.25

Given the compound `CC[C@H]1OC(=O)[C@H](C)C(=O)[C@H](C)[C@@H](O[C@@H]2O[C@H](C)C[C@H](N(C)C)[C@H]2O)[C@@](C)(OCC=Cc2cnc3ccccc3c2)C[C@@H](C)C(=O)[C@H](C)[C@H]2OC(=O)O[C@@]21C` , what is its reported MIC?
0.5
